Give measured protein stability index for each item. Keep answers brief.
B1: PDLIM4 (parent)
chain: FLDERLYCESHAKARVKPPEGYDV

- Variants of: B1
- protocol description: protein stability index of a GFP-peptide fusion (GPS, HEK-293T) (PSI 1-6); higher = more stable;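 note: lentivirally expressed fusions sorted by FACS into six bins by GFP to DsRed ratio, PSI derived from sequencing read proportions per bin multiplied by bin number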
- measurement setup: c terminus: a fixed tail appended

sequence code | protein stability index
FLDERLYCEQHAKARVKPPEGYDV [S10Q] | 1.88
TLDERLYCESHAKARVKPPEGYDV [F1T] | 4.72

For every record below, what is its protein stability index?
1. FLDERLYCESHAKARVLPPEGYDV [K17L]
2. FLEERLYCESHAKARVKPPEGYDV [D3E]
3. FLDERLGCESHAKARVKPPEGYDV [Y7G]

Response:
2.56
1.94
2.04

For each of the variants below, note its protein stability index.
1. FLFERLYCESHAKARVKPPEGYDV [D3F]
2. FLDERLYCESHAKARVKPPEGYDA [V24A]
3. FLNERLYCESHAKARVKPPEGYDV [D3N]
4. FLDERLYCESHAKARVKPPHGYDV [E20H]
5. FLDERLYCESHQKARVKPPEGYDV [A12Q]
6. FLDERLYCESHAKARVKPPEGLDV [Y22L]
7. FLDERLYCEMHAKARVKPPEGYDV [S10M]
8. FLDERLYCESFAKARVKPPEGYDV [H11F]

Response:
1. 2.66
2. 2.09
3. 1.21
4. 2.82
5. 1.37
6. 1.15
7. 2.54
8. 1.48

Fill in protein stability index for each of the 8 variants listed.
1. FLDERLYCESHAKMRVKPPEGYDV [A14M]
2. WLDERLYCESHAKARVKPPEGYDV [F1W]
3. FLDERLYCESHAKARVKPPEGSDV [Y22S]
4. FLDERLYCESHAKARVKPHEGYDV [P19H]
5. FLDERLYCESEAKARVKPPEGYDV [H11E]
6. FLDERLYCKSHAKARVKPPEGYDV [E9K]
7. FLDERLYCESHAKARVKPPEGYWV [D23W]
8. FLDERLYEESHAKARVKPPEGYDV [C8E]

Response:
[1.76, 2.5, 1.04, 1.72, 1.34, 1.42, 1.81, 3.52]
